Cut-off 200 °C on melting point, inclusive. At or above means satisfied; below means not satisfied.

Observe how each entry below is paired with its result.
| chem_smiles | assigned_class |
| --- | --- |
| BrCc1ccc(-c2ccc(CBr)cn2)nc1 | not satisfied |
| Cn1c(-c2cccc(-c3cc4ccccc4n3C)c2)cc2ccccc21 | not satisfied |
| C[C@@H]1OC(P(=O)(O)O)=CC[C@@]1(O)n1cnc2c(N)ncnc21 | not satisfied |
| CC(C)(C)c1nc(-c2nnc(NC(=N)N)s2)nc(C(C)(C)C)c1O | satisfied |
| NS(=O)(=O)c1ccc(-c2c(-c3ccccc3)noc2C(=O)O)cc1 | satisfied |

Ask: Is melting point for CC(C)Oc1ccc(OC(C)C)c(OCCN2C(=O)c3ccccc3C2=O)c1 at or above 200 °C?
Reply: not satisfied

Ask: Queued: CC(C)(C)OC(=O)N1CCOS1(=O)=O
Reply: not satisfied

Recorded values, source a melting point compilation (Tetko et al.; mined from patent text by program, amines drawn as free bases though some values may be those of a salt).
